- Tested on: Liver
- Assay overview: Intrinsic clearance in B6C3F1 mouse liver microsomes after 30 mins by LC-ESI-MS analysis
- Format: ADME
- Condition info: 0.5 h
Quantity kind: CLH

The measured CLH associated with O=C(Nc1ccc(Cl)c(Cl)c1)Nc1ccc(Cl)cc1O reads 1450 µL/min/mg

====

- Assay overview: Inhibition of human recombinant soluble epoxide hydrolase using CMNPC as substrate
Quantity kind: pIC50
Keep in mind that pIC50 stands for -log10 of concentration in molar terms.

The measured pIC50 associated with O=C(Nc1ccc(Cl)cc1)Nc1ccc(Cl)c(Cl)c1 [TRICLOCARBAN] reads 7.62

====

- Assay overview: Drug excretion in human urine
- Type: ADME
- Condition info: read-out: Drug excretion
Quantity kind: dose excreted (%)
Report the value in % with no unit label.

The measured dose excreted associated with O=C(Nc1ccc(Cl)cc1)Nc1ccc(Cl)c(Cl)c1 reads 25

Hey, just so you know, these numbers are from ChEMBL document CHEMBL3525967.
